System: T-47D breast
Experiment: NCI tumour cell line growth inhibition, 48 h

Compound	Target Or System	GI50
Cc1cc(Cl)n2c(nc3ccccc32)c1C#N	T-47D breast	718 nM
COc1ccc(CCNc2nc3ccccc3c3[nH]c4ccccc4c23)cc1OC	T-47D breast	15300 nM
CCc1cc(C(N)=O)ccc1-n1nc(C(C)C)c2c(-n3cnc(-c4cnn(C)c4)c3)ccnc21	T-47D breast	1830 nM
CCN(CC)CCCCCCCCNc1c2ccc(Cl)cc2nc2ccc(OC)cc12	T-47D breast	2820 nM
C=C1C(=O)O[C@@H]2[C@@H]3O[C@@](C)(CC/C=C(\C)CCC[C@@H]2C)[C@H](O)C[C@@H]13	T-47D breast	2020 nM
CCN1CCC(C(=O)Nc2n[nH]c3nnc(-c4cccc(F)c4F)cc23)CC1	T-47D breast	4420 nM
Cc1cc(O)c2c(c1)C[C@@H](O)C1=C2C(=O)c2c(O)ccc(OC3CC(O)C(OC4CC(OC5CCC(OC6CC(O)C(OC7CC(OC8CCC(O)C(C)O8)C(O)C(C)O7)C(C)O6)C(C)O5)C(O)C(C)O4)C(C)O3)c2C1=O (some centres not stated)	T-47D breast	626 nM
CC[C@]1(O)C[C@@H]2CN(Cc3c([nH]c4ccccc34)[C@@](C(=O)OC)(c3cc4c(cc3OC)N(C)[C@H]3[C@@](O)(C(=O)OC)[C@H](OC(C)=O)[C@]5(CC)[C@@H]6C[C@@H]6CN6CC[C@]43[C@@H]65)C2)C1	T-47D breast	56.2 nM
Cc1ncc(C(=O)Nc2ccc(CN3CCN(C)CC3)c(C(F)(F)F)c2)cc1C#Cc1c(N)ncc2ccc(C#N)cc12	T-47D breast	> 14500 nM
C#Cc1cccc(NC(=O)Nc2ccccc2NC(=O)CCl)c1	T-47D breast	31100 nM
CC/C(=C(\c1ccccc1)c1ccc(OCCN(C)C)cc1)c1ccccc1	T-47D breast	805 nM
COc1ccc(C(=O)/C=C/c2ccc(Cl)cc2)cc1S(N)(=O)=O	T-47D breast	3200 nM

====

System: TK-10 renal
Experiment: NCI tumour cell line growth inhibition, 48 h
Reported GI50 values for the following compounds.

Compound	GI50
Cc1cc(Cl)n2c(nc3ccccc32)c1C#N	0.898 µM
CCOC(=O)c1cc2c(n1Cc1cccc(OC)c1)-c1oncc1CC2	7.51 µM
Cc1c(CNc2ccc(Cl)c(C(=O)NC(CC(=O)O)C(=O)O)c2)ccc2nc(N)nc(N)c12 (configuration not stated)	363 µM
CCN1CCC(C(=O)Nc2n[nH]c3nnc(-c4cccc(F)c4F)cc23)CC1	11.3 µM
Clc1ccc(Cl)c(N/N=C\c2c[nH]c3ccccc23)c1	12 µM
Cc1nc2c(cnn2-c2ccnc3c(C(F)(F)F)cccc23)c(=O)o1	> 100 µM
CCc1cc(C(N)=O)ccc1-n1nc(C(C)C)c2c(-n3cnc(-c4cnn(C)c4)c3)ccnc21	1.23 µM

====

Reported TGI values for the following compounds.
Test system: MDA-N
Experiment: NCI tumour cell line growth inhibition, 48 h

Compound	Target Or System	Modifier	TGI [µM]
O=C(Nc1ccccc1)c1cc2c(cc1Cl)Sc1nccn1S2(=O)=O	MDA-N	>	100
c1ccc2c(c1)c1c(n2CCOCCN2CCCCC2)CCCC1	MDA-N	=	28.7
COc1ccc2oc(S(=O)(=O)N3CC(CCl)c4ccc([N+](=O)[O-])cc43)cc2c1 (stereo not given)	MDA-N	=	11
O=C(O)Cc1ccc(Oc2nc3ccccc3nc2-c2cccs2)cc1	MDA-N	>	100
CC1(C)C2CCC1(CS(=O)(=O)Nc1ccccc1)C(=O)C2 (stereo not given)	MDA-N	>	100
O=c1c2ccccc2oc2c1ccc1ncccc12	MDA-N	>	100
CC1(CCCC2(C)CCNC2=O)OCCO1 (stereo not given)	MDA-N	>	10
CN(NC(=O)/C(=C/c1ccc(O)cc1)NC(=O)c1ccccc1)c1ccnc2cc(Cl)ccc12	MDA-N	=	32.2
C=CCNC1=C2C[C@@H](C)C[C@@H](OC)C(OC(=O)CCCN(C)C)[C@H](C)/C=C(\C)[C@@H](OC(N)=O)[C@H](OC)/C=C\C=C(/C)C(=O)NC(=CC1=O)C2=O (stereo not given in full)	MDA-N	=	19.8
COc1ccc(-c2oc3ccc(C)cc3c(=O)c2O)cc1	MDA-N	>	100

Values from PubChem BioAssay (NCI)
